System: Enterobacterales
assayProtocol: MIC, broth microdilution, CDC/FDA Antibiotic Resistance Isolate Bank (Example 7, Tables 8, 11, 12)
Assay type: cell-based
statedConditions: Klebsiella pneumoniae, KUB No. 5636, AR Bank # 139; read-out: MIC
measuredProperty: MIC (µg/mL)
Expressed in µg/mL, but write only the number.

CO/N=C(\C(=O)N[C@@H]1C(=O)N2C(C(=O)[O-])=C(C[n+]3ccn4ncccc43)CS[C@H]12)c1nsc(N)n1 64
CC(C)(O/N=C(\C(=O)N[C@@H]1C(=O)N2C(C(=O)[O-])=C(C[N+]3(CCNC(=O)c4ccc(O)c(O)c4Cl)CCCC3)CS[C@H]12)c1csc(N)n1)C(=O)O 0.12

Would you kindly look at the next entry?
[in] Under Enterobacterales: MIC value of C[C@H]1COc2c(N3CCN(C)CC3)c(F)cc3c(=O)c(C(=O)O)cn1c23 ?
[out] 8

---

System: Enterobacter hormaechei
assayProtocol: MIC, broth microdilution, standard strains and Japanese clinical isolates (Example 5, Table 4)
Type: cell-based
statedConditions: ATCCBAA2082; KUB4001 Enterobacter hormaechei ATCC BAA-2082, KPC-2
measuredProperty: MIC (µg/mL)
Entry rule: numbers only, all in µg/mL.

Below are worked cases with known answers.
C[C@@H](O)[C@H]1C(=O)N2C(C(=O)O)=C(S[C@@H]3CN[C@H](C(=O)N(C)C)C3)[C@H](C)[C@H]12 16
C[C@@H](O)[C@H]1C(=O)N2C(C(=O)O)=C(SCCN=CN)C[C@H]12 32

Okay, next one:
[in] Hello, I am looking for reported MIC with Enterobacter hormaechei for CC(C)(O/N=C(\C(=O)N[C@@H]1C(=O)N2C(C(=O)[O-])=C(C[N+]3(CCNC(=O)c4ccc(O)c(O)c4Cl)CCCC3)CS[C@H]12)c1csc(N)n1)C(=O)O . Could you help?
[out] 2

---

Tested on: Enterobacterales
assayProtocol: MIC, broth microdilution, CDC/FDA Antibiotic Resistance Isolate Bank (Example 7, Tables 8, 11, 12)
Format: cell-based
statedConditions: Enterobacter cloacae, KUB No. 5763, AR Bank # 367; read-out: MIC
measuredProperty: MIC (mg/L)
Entry rule: numbers only, all in mg/L.

CN(C)c1cc(NC(=O)CNC(C)(C)C)c(O)c2c1C[C@H]1C[C@H]3[C@H](N(C)C)C(O)=C(C(N)=O)C(=O)[C@@]3(O)C(O)=C1C2=O 0.5

[in] Which MIC reading was recorded for the compound CO/N=C(\C(=O)N[C@@H]1C(=O)N2C(C(=O)[O-])=C(C[n+]3ccn4ncccc43)CS[C@H]12)c1nsc(N)n1 ?
[out] 4

[in] And for CC(C)(O/N=C(\C(=O)N[C@@H]1C(=O)N2C(C(=O)[O-])=C(C[N+]3(CCNC(=O)c4ccc(O)c(O)c4Cl)CCCC3)CS[C@H]12)c1csc(N)n1)C(=O)O ?
[out] 1

[in] Please give the result for NCC[C@H](O)C(=O)N[C@@H]1C[C@H](N)[C@@H](O[C@H]2O[C@H](CN)[C@@H](O)[C@H](O)[C@H]2O)[C@H](O)[C@H]1O[C@H]1O[C@H](CO)[C@@H](O)[C@H](N)[C@H]1O too.
[out] 1

[in] Continue with C[C@H]1COc2c(N3CCN(C)CC3)c(F)cc3c(=O)c(C(=O)O)cn1c23
[out] 1
